Experiment: drug combination growth inhibition, ovarian cancer – cell-based, oncology-focused library, rucaparib conditional, profiling panel (AID 1508598)
Settings: patient-derived ovarian cancer cells, CellTiter-Glo viability, 144 h; at 0.313 µM; OCI-C5x cells; with rucaparib 10 µM; active compounds read low; 100% = cells with rucaparib alone
Active and inactive are the calls of the source.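 The calls were made as follows: active = normalized viability below 100% at a tested concentration; inactive = the rest.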
METRIC_NAME: viability

COMPOUND	RESULT
CC(C)C[C@H](NC(=O)CNC(=O)c1cc(Cl)ccc1Cl)B(O)O	30.3% (active)
Cn1cnc(=N)c2[nH]cnc21	112% (inactive)
COc1ccc(C2=NC(c3ccc(Cl)cc3)C(c3ccc(Cl)cc3)N2C(=O)N2CCNC(=O)C2)c(OC(C)C)c1 (stereo unspecified)	113% (inactive)
CC(C)n1nc(-c2ccc3oc(N)nc3c2)c2c(N)ncnc21	61.9% (active)
CC(C)C[C@H](NC(=O)CNC(=O)c1cc(Cl)ccc1Cl)B1OC(=O)CC(CC(=O)O)(C(=O)O)O1 (stereo partly specified)	25% (active)
CNC(=O)c1cc(COc2nnc(Nc3ccc(Cl)cc3)c3ccoc23)ccn1	108% (inactive)
